Tested on: DeltatarO mutant
Assay: S. aureus survival, RN4220 and DeltatarO strains – OD600, teichoic acid synthesis inhibitors, primary screen (AID 463173)
Details: S. aureus RN4220 wild type/DeltatarO growth, OD600, 18 h, screened at 18.75 µg/mL (by protocol)
Among all 52,000 compounds or so, about 4,300 (8.3%) were called active. Rule as the data show it: active = survival mostly below about 52% (no sharp cut-off); inactive = mostly above about 56%. The sample holds actives, similar compounds and a random draw of the others, so the mix is not that of the screen.
The reply should name one outcome from label 1 = active, label 0 = inactive

Take a look at these entries with their results.
COc1cccc(CNC(=O)Cn2c(=O)n3nc(-c4cccc(C)c4)nc3c3ccccc32)c1 : label 0
CNC(=O)CSc1ncnc2sc3c(c12)CCCC3 : label 0
CCc1c(C)nc2nc(-c3ccccc3)nn2c1NCc1ccc(C)cc1 : label 1
COc1ccccc1NC(=O)c1ncn(-c2ccccc2)n1 : label 0
COC(=O)c1ccc(NS(=O)(=O)c2ccc3c(c2)n(C)c(=O)c(=O)n3C)cc1 : label 0
CCCn1c(CCC(=O)Nc2cc(OC)cc(OC)c2)nc2cccnc21 : label 0
CCCc1cnc2c(c1SCC(=O)Nc1ccc([N+](=O)[O-])cc1)c(=O)n(C)c(=O)n2C : label 0
O=C(COCc1cc(-c2ccc3c(c2)OCO3)on1)NCc1ccccc1Cl : label 0

Q) I would be grateful if you could indicate the recorded call for "CC(C)c1ccc(NC(=O)CN2C(=O)CCc3cc(S(=O)(=O)N4CCOCC4)ccc32)cc1" .
A) label 0

Q) Status in this test for "COC(=O)c1ccc(C(=O)OC)c(NC(=O)c2c(-c3ccccc3)c(-c3ccccc3)nn(C)c2=O)c1" ?
A) label 0

Q) For "COc1ccc(CNC(=O)COCc2cc(-c3ccc4c(c3)OCO4)on2)cc1" , what call appears in the results of this test?
A) label 0

Q) Could you please tell me the result logged for "COc1ccc(Cl)cc1NC(=O)CN(C)S(=O)(=O)c1ccc2c(c1)CCCN2C(C)=O" in this assay?
A) label 0

Q) In this assay, the call recorded for "COc1cccc(CNC(=O)COCc2cc(-c3ccc4c(c3)OCO4)on2)c1" was what?
A) label 1

Q) Hi team, can someone confirm the assay call for CCC(Sc1ncnc2sc3c(c12)CCCC3)C(=O)OCC(C)C (configuration not stated) ?
A) label 1

Q) Query: recorded result category for "COc1ccc2oc(=O)cc(CN3CCN(c4ccc(F)cc4)CC3)c2c1" in this test
A) label 0

Q) Check the results log: what was the call for "CCOc1ccc2nc(NCCNC(=O)Nc3cccc(Cl)c3)c(C#N)cc2c1" ?
A) label 0

Q) Which result was noted for this compound in the test: "CCOC(=O)c1c(NC(=O)/C=C/c2ccc(C)cc2)sc(C(C)=O)c1C"
A) label 0
